These entries and their values trace back to the RNAGym collection of RNA variant scans (doi:10.1073/pnas.2313332121).

B1: TPR t1 (parent)
chain: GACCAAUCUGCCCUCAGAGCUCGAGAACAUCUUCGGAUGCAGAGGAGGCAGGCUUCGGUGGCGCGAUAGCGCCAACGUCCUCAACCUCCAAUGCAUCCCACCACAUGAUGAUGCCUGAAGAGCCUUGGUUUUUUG

- Variants of: B1
- TEST METHOD NOTES: polymerase ribozyme fitness, log enrichment relative to wild type (log ratio); higher = more active; in vitro selection for triplet polymerase activity
Assign class by polymerase ribozyme fitness (log ratio): not lower than -3 means label 1; lower than -3 means label 0.

MUTATION STRING | ASSIGNED CATEGORY
G57C G60U A100U U130G | label 1
C13A C15U G47C C114A U130C | label 0
C8U G60C G61C C72A C101U | label 1
C34G A111G G127A | label 0
A2U C49U | label 0
C15G U55C A75G | label 0

Query string: Is reported polymerase ribozyme fitness (log ratio) greater than or equal to -3 here: G10U C53U A91U U92A C97U
Result string: label 0

Query string: Is reported polymerase ribozyme fitness (log ratio) greater than or equal to -3 here: A27G G60C
Result string: label 1

Query string: Is reported polymerase ribozyme fitness (log ratio) greater than or equal to -3 here: U7G A18U A121U
Result string: label 1

Query string: Is reported polymerase ribozyme fitness (log ratio) greater than or equal to -3 here: A26U C56G
Result string: label 0

Query string: Is reported polymerase ribozyme fitness (log ratio) greater than or equal to -3 here: A6U G45U C101A
Result string: label 1

Query string: Is reported polymerase ribozyme fitness (log ratio) greater than or equal to -3 here: A5U C15U A16U U125A
Result string: label 0
